Assay: Selectivity index, ratio of CC50 for mouse J774A1 cells to IC50 for Leishmania donovani intracellular amastigotes infected in mouse J774A1 cells
Format: functional, J774.A1
Reported Ratio CC50/IC50 values for a set of molecules
testReadout: Ratio CC50/IC50

| molecule | qualifierSign | valueReported |
| --- | --- | --- |
| OC1C(Cn2ccnc2)CCCC1Cn1ccnc1 (stereo not given) | > | 9.28 |
| O=[N+]([O-])c1ccc(OC2C(Cn3ccnc3)CCCC2Cn2ccnc2)c(F)c1 (stereo not given) | = | 33.64 |
| O=[N+]([O-])c1ccccc1O[C@H]1CCCC[C@@H]1Cn1ccnc1 | = | 9.39 |
| FC(F)(F)c1ccc(OC2C(Cn3ccnc3)CCCC2Cn2ccnc2)cc1 (stereo not given) | = | 83.6 |
| O=[N+]([O-])c1ccc(OC2C(n3ccnc3)CCCC2n2ccnc2)cc1 (stereo not given) | > | 11.4 |

###

Reported IC50 values for a set of compounds
Tested on: Leishmania donovani
Assay: Antileishmanial activity against Leishmania donovani extracellular promastigotes after 72 hrs by luciferase activity-based drug susceptibility assay
Format: functional, organism-based
testReadout: IC50 (µg/mL)

| compound | assayTarget | testReadout | unitLabel | valueReported |
| --- | --- | --- | --- | --- |
| O=[N+]([O-])c1ccccc1O[C@H]1CCCC[C@@H]1Cn1ccnc1 | Leishmania donovani | IC50 | µg/mL | 4.23 |
| N=C(N)c1ccc(OCCCCCOc2ccc(C(=N)N)cc2)cc1 [PENTAMIDINE] | Leishmania donovani | IC50 | µg/mL | 0.643 |
| O=[N+]([O-])c1ccccc1OC1C(Cn2ccnc2)CCCC1Cn1ccnc1 (stereo not given) | Leishmania donovani | IC50 | µg/mL | 9.57 |
| O=[N+]([O-])c1ccc(O[C@H]2CCCC[C@@H]2Cn2ccnc2)c(F)c1 | Leishmania donovani | IC50 | µg/mL | 1.08 |
| O=[N+]([O-])c1ccc(O[C@H]2CCCC[C@@H]2Cn2ccnc2)c(C(F)(F)F)c1 | Leishmania donovani | IC50 | µg/mL | 2.37 |
| O=[N+]([O-])c1ccc(OC2C(n3ccnc3)CCCC2n2ccnc2)cc1 (stereo not given) | Leishmania donovani | IC50 | µg/mL | 4.67 |
| FC(F)(F)c1ccc(OC2C(n3ccnc3)CCCC2n2ccnc2)cc1 (stereo not given) | Leishmania donovani | IC50 | µg/mL | 2.06 |
| O=[N+]([O-])c1ccc(OC2C(Cn3ccnc3)CCCC2Cn2ccnc2)c(F)c1 (stereo not given) | Leishmania donovani | IC50 | µg/mL | 3.57 |
| FC(F)(F)c1ccc(OC2C(Cn3ccnc3)CCCC2Cn2ccnc2)cc1 (stereo not given) | Leishmania donovani | IC50 | µg/mL | 3.28 |
| O=[N+]([O-])c1ccc(OC2C(Cn3ccnc3)CCCC2Cn2ccnc2)c(C(F)(F)F)c1 (stereo not given) | Leishmania donovani | IC50 | µg/mL | 6.72 |
| FC(F)(F)c1ccc(O[C@H]2CCCC[C@@H]2Cn2ccnc2)cc1 | Leishmania donovani | IC50 | µg/mL | 0.81 |
| O=[N+]([O-])c1ccc(OC2C(Cn3ccnc3)CCCC2Cn2ccnc2)cc1 (stereo not given) | Leishmania donovani | IC50 | µg/mL | 5.52 |
| O=[N+]([O-])c1ccc(O[C@H]2CCCC[C@@H]2Cn2ccnc2)cc1 | Leishmania donovani | IC50 | µg/mL | 0.82 |
| OC1C(Cn2ccnc2)CCCC1Cn1ccnc1 (stereo not given) | Leishmania donovani | IC50 | µg/mL | 9.4 |
| O=[N+]([O-])c1ccc(OC2C(n3ccnc3)CCCC2n2ccnc2)c(F)c1 (stereo not given) | Leishmania donovani | IC50 | µg/mL | 6.13 |

###

Reported CC50 at 48 h values for a set of compounds
Assay: Cytotoxicity against mouse J774A1 cells after 48 hrs by Geimsa staining method
Type: cell-based, J774.A1
testReadout: CC50 at 48 h (µg/mL)

| compound | testReadout | qualifierSign | valueReported |
| --- | --- | --- | --- |
| OC1C(Cn2ccnc2)CCCC1Cn1ccnc1 (stereo not given) | CC50 at 48 h | > | 100 |
| O=[N+]([O-])c1ccc(OC2C(n3ccnc3)CCCC2n2ccnc2)c(F)c1 (stereo not given) | CC50 at 48 h | = | 90.6 |
| O=[N+]([O-])c1ccccc1O[C@H]1CCCC[C@@H]1Cn1ccnc1 | CC50 at 48 h | = | 63.1 |
| O=[N+]([O-])c1ccc(O[C@H]2CCCC[C@@H]2Cn2ccnc2)c(C(F)(F)F)c1 | CC50 at 48 h | = | 13.8 |
| O=[N+]([O-])c1ccc(OC2C(Cn3ccnc3)CCCC2Cn2ccnc2)c(C(F)(F)F)c1 (stereo not given) | CC50 at 48 h | = | 14.4 |
| FC(F)(F)c1ccc(OC2C(n3ccnc3)CCCC2n2ccnc2)cc1 (stereo not given) | CC50 at 48 h | = | 96.4 |
| FC(F)(F)c1ccc(OC2C(Cn3ccnc3)CCCC2Cn2ccnc2)cc1 (stereo not given) | CC50 at 48 h | = | 94.5 |
| O=[N+]([O-])c1ccccc1OC1C(Cn2ccnc2)CCCC1Cn1ccnc1 (stereo not given) | CC50 at 48 h | = | 69.4 |
| N=C(N)c1ccc(OCCCCCOc2ccc(C(=N)N)cc2)cc1 | CC50 at 48 h | = | 31.3 |
| O=[N+]([O-])c1ccc(O[C@H]2CCCC[C@@H]2Cn2ccnc2)c(F)c1 | CC50 at 48 h | > | 100 |
| O=[N+]([O-])c1ccc(OC2C(Cn3ccnc3)CCCC2Cn2ccnc2)cc1 (stereo not given) | CC50 at 48 h | = | 73.9 |
| O=[N+]([O-])c1ccc(O[C@H]2CCCC[C@@H]2Cn2ccnc2)cc1 | CC50 at 48 h | = | 44.6 |
| O=[N+]([O-])c1ccc(OC2C(Cn3ccnc3)CCCC2Cn2ccnc2)c(F)c1 (stereo not given) | CC50 at 48 h | = | 39.4 |
| FC(F)(F)c1ccc(O[C@H]2CCCC[C@@H]2Cn2ccnc2)cc1 | CC50 at 48 h | = | 35.6 |
| O=[N+]([O-])c1ccc(OC2C(n3ccnc3)CCCC2n2ccnc2)cc1 (stereo not given) | CC50 at 48 h | > | 100 |

###

System: Leishmania donovani
Assay: Antileishmanial activity against Leishmania donovani intracellular amastigotes infected in mouse J774A1 cells after 48 hrs by luciferase activity-based drug susceptibility assay
Format: functional, organism-based
Details: J774.A1, 48 h
testReadout: IC50 (µg/mL)

| compound | testReadout | valueReported |
| --- | --- | --- |
| O=[N+]([O-])c1ccc(O[C@H]2CCCC[C@@H]2Cn2ccnc2)c(C(F)(F)F)c1 | IC50 | 2.13 |
| OC1C(Cn2ccnc2)CCCC1Cn1ccnc1 (stereo not given) | IC50 | 10.8 |
| O=[N+]([O-])c1ccc(OC2C(Cn3ccnc3)CCCC2Cn2ccnc2)cc1 (stereo not given) | IC50 | 1.97 |
| FC(F)(F)c1ccc(O[C@H]2CCCC[C@@H]2Cn2ccnc2)cc1 | IC50 | 3.83 |
| O=[N+]([O-])c1ccc(OC2C(n3ccnc3)CCCC2n2ccnc2)cc1 (stereo not given) | IC50 | 8.76 |

###

Experiment: Selectivity index, ratio of CC50 for mouse J774A1 cells to IC50 for Leishmania donovani intracellular amastigotes infected in mouse J774A1 cells
Format: functional, J774.A1

| compound | qualifierSign | Ratio CC50/IC50 |
| --- | --- | --- |
| FC(F)(F)c1ccc(O[C@H]2CCCC[C@@H]2Cn2ccnc2)cc1 | = | 9.292 |
| O=[N+]([O-])c1ccc(O[C@H]2CCCC[C@@H]2Cn2ccnc2)cc1 | = | 9.757 |
| O=[N+]([O-])c1ccc(O[C@H]2CCCC[C@@H]2Cn2ccnc2)c(C(F)(F)F)c1 | = | 6.49 |
| O=[N+]([O-])c1ccc(OC2C(Cn3ccnc3)CCCC2Cn2ccnc2)c(C(F)(F)F)c1 (stereo not given) | = | 24.557 |
| O=[N+]([O-])c1ccc(O[C@H]2CCCC[C@@H]2Cn2ccnc2)c(F)c1 | > | 140.84 |
| O=[N+]([O-])c1ccc(OC2C(Cn3ccnc3)CCCC2Cn2ccnc2)cc1 (stereo not given) | = | 37.51 |
| O=[N+]([O-])c1ccc(OC2C(n3ccnc3)CCCC2n2ccnc2)c(F)c1 (stereo not given) | = | 30 |
| FC(F)(F)c1ccc(OC2C(n3ccnc3)CCCC2n2ccnc2)cc1 (stereo not given) | = | 32.143 |
| N=C(N)c1ccc(OCCCCCOc2ccc(C(=N)N)cc2)cc1 | = | 2.58 |
| O=[N+]([O-])c1ccccc1OC1C(Cn2ccnc2)CCCC1Cn1ccnc1 (stereo not given) | = | 28.47 |
